biological target: recombinant human ALX receptor (Homo sapiens, UniProt P25090); assay: Intracellular calcium measurements (FLIPR), ALX receptor agonistic activity; conditions: HEK293-hALXR-Gα16 cells, Fluo-4 calcium signal, normalized to WKYMVm 10 nM
pEC50: −log10 of the molar value. Where a name gives a salt, the structure may show the parent alone.
Think of 7 as a floor: if pEC50 stands on it or above, it is Y; beneath it, N.

Some entries whose results are on file:
Q: Determine whether this compound has pEC50 no lower than 7: COc1ccc(C[C@@H](NC(=O)NCCc2ccc(C)cc2)c2nc3ccccc3[nH]2)cc1 [Example 66, hydrochloride]
Ans: N

Q: Confirm if pEC50 reported for the compound COc1ccc(C[C@@H](NC(=O)N2CC3CC2CN3C(=O)OC(C)(C)C)c2nc3ccccc3[nH]2)cc1 (stereo partly drawn) is 7 or above.
Ans: N

Q: // inclusive: pEC50 at least 7? input: `COc1ccc(C[C@@H](NC(=O)N[C@H](C)c2ccccc2OC)c2nc3ccccc3[nH]2)cc1`
Ans: N

Q: Hi team, for `COc1ccc(C[C@@H](NC(=O)Nc2ccc(OC)cc2)c2nc3ccccc3[nH]2)cc1` , is the recorded pEC50 at or above 7?
Ans: N

Q: Is the recorded value of pEC50 equal to or greater than 7 for this compound? `COc1ccc(C[C@@H](NC(=O)NCc2ccccc2Cn2cncn2)c2nc3ccccc3[nH]2)cc1`
Ans: Y

New cases:
Q: Is it the case that COc1cc(F)c(CC(NC(=O)N[C@H]2CC[C@](C)(O)CC2)c2nc3ccccc3[nH]2)cc1F (mixture of isomers) has pEC50 reaching or exceeding 7?
Ans: Y

Q: Has `COc1ccc(C[C@@H](NC(=O)N[C@H]2CCN(C(=O)OC(C)(C)C)C2)c2nc3ccccc3[nH]2)cc1` a recorded pEC50 greater than or equal to 7?
Ans: N

Q: Answer whether pEC50 of `COc1ccc(C[C@@H](NC(=O)N[C@H](C)[C@@H](O)c2ccccc2)c2nc3ccccc3[nH]2)cc1` is greater than or equal to 7.
Ans: Y

Q: Check this compound for pEC50 at or above 7: `COc1ccc(C[C@@H](NC(=O)NC(C)(C)c2ccccc2)c2nc3ccccc3[nH]2)cc1`
Ans: N

Q: // inclusive: pEC50 at least 7? input: `COc1ccc(C[C@@H](NC(=O)NCc2ccccc2OCC(F)(F)F)c2nc3ccccc3[nH]2)cc1`
Ans: Y

Q: Quick check: does `O=C(N[C@H](Cc1ccc(Br)cc1)c1nc2ccc(F)cc2[nH]1)N[C@H]1CC[C@H](O)CC1` have pEC50 greater than or equal to 7?
Ans: Y

Q: Is it the case that COc1ccc(C[C@@H](NC(=O)NC2CC3CCC2C3)c2nc3ccccc3[nH]2)cc1 (stereo partly drawn) has pEC50 reaching or exceeding 7?
Ans: Y

###

Biological target: recombinant human ALX receptor (Homo sapiens, UniProt P25090)
Sequence (P25090 1-351): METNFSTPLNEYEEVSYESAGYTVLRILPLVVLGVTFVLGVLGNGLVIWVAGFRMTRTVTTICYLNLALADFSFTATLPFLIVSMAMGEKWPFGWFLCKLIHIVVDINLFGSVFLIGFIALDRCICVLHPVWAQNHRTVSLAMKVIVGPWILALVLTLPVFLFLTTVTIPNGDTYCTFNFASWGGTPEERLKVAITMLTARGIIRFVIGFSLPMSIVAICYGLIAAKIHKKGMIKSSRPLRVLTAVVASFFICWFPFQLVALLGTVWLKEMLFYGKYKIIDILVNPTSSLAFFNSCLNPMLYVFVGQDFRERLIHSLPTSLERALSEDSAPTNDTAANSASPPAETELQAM
Assay: Intracellular calcium measurements (FLIPR), ALX receptor agonistic activity
Conditions: HEK293-hALXR-Gα16 cells, Fluo-4 calcium signal, normalized to WKYMVm 10 nM
reported_endpoint: pEC50
pEC50 field: float, defined as -log10 of concentration (mol/L).

Q: Given COc1ccc(C[C@@H](NC(=O)NCc2cccnc2N2CCOCC2)c2nc3ccccc3[nH]2)cc1 [Example 206] , state its recorded pEC50.
Ans: 6.84

Q: // returns reported pEC50 for input COc1ccc(C[C@@H](NC(=O)NCCc2ccccc2C(F)(F)F)c2nc3ccccc3[nH]2)cc1 [Example 274]
Ans: 6.94

Q: Suppose we examine the compound COc1ccc(C[C@@H](NC(=O)NCCC2CCN(C)CC2)c2nc3ccccc3[nH]2)cc1 [Example 160] ; what pEC50 value has been reported?
Ans: 6.82

Q: I have this compound here, COc1ccc(C[C@@H](NC(=O)NC2CCN(C(C)C)CC2)c2nc3ccccc3[nH]2)cc1 [Example 101] , and I need its recorded pEC50.
Ans: 6.95

More entries:
Q: Requested read-out: pEC50. Entry: CC[C@H](NC(=O)N[C@H](Cc1ccc(OC)cc1)c1nc2ccccc2[nH]1)c1ccccc1 [Example 345]
Ans: 6.90

Q: Fill in: pEC50 of COc1ccc(CC(NC(=O)N[C@H]2CC[C@H](O)CC2)c2nc3cc(F)ccc3[nH]2)c(F)c1F (single isomer, unassigned; ent-1) [Example 375] is ___
Ans: 9.40

Q: Name the reported pEC50 value associated with the compound COc1ccc(C[C@@H](NC(=O)N[C@H](C)c2ccc(C)cc2)c2nc3ccccc3[nH]2)cc1 [Example 301]
Ans: 7.18
